Listed here are binders together with their documented Cynomologus WBSC IC50 (rhGROα).
Assayed System: T1, Cynomolgus CXCR2 (cynomolgus, UniProt Q28519 3-353 (rhesus entry))
T1 chain: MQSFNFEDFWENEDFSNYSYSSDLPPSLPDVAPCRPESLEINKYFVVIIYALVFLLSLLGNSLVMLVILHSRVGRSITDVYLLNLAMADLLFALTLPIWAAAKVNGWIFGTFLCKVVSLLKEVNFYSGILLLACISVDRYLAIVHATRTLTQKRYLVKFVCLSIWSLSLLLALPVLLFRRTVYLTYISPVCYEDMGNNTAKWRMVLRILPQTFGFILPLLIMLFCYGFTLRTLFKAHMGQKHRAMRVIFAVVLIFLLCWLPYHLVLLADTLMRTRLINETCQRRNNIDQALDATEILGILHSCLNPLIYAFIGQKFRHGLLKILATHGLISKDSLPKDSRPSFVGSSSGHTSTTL
Protocol Summary: cell-based or functional assay
Record the value in nM, omitting the unit from your answer.

Binder	Cynomologus WBSC IC50 (rhGROα) [nM]
CXCR20034 (bispecific antibody, Biparatopic: two VHH joined by a GlySer linker; also called 163D2-35GS-2B2; 163D2-2B2; not shown: C-terminal c-myc tag and His6 tag coded by pAX100) EVQLVESGGGLVQAGGSLRLSCAASGRTFSDYAMGWFRQAPGKEREFVAAITWNGGRVFYTASVKGRFTISRDNAKNTMYLQMNSLKPEDTAVYYCAADKDRRTDYLGHPVAYWGQGTQVTVSSGGGGSGGGGSGGGGSGGGGSGGGGSGGGGSGGGGSEVQLVESGGELVQPGGSLRLSCAASGSILTINAMGWYRQAPGKQRELVVRRTRGGSTTYQDSVKGRFTISADIAKKTMYLQMNSLKPEDTAVYYCMLDDRGGVYWGQGTQVTVSS	0.44
CXCR20020 (bispecific antibody, Biparatopic: two VHH joined by a GlySer linker; also called 127D1-35GS-163D2; 127D1-163D2; not shown: C-terminal c-myc tag and His6 tag coded by pAX100) EVQLVESGGGLVQAGESLRLSCAASGSTFDFKVMGWYRQPPGKQREGVAAIRLSGNMHYAESVKGRFTISKANAKNTVYLQMNSLRPEDTAVYYCKVNIRGQDYWGQGTQVTVSSGGGGSGGGGSGGGGSGGGGSGGGGSGGGGSGGGGSEVQLVESGGGLVQAGGSLRLSCAASGRTFSDYAMGWFRQAPGKEREFVAAITWNGGRVFYTASVKGRFTISRDNAKNTMYLQMNSLKPEDTAVYYCAADKDRRTDYLGHPVAYWGQGTQVTVSS	0.12

Form field: reported Cynomologus WBSC IC50 (rhGROα) of CXCR20026 (bispecific antibody, Biparatopic: two VHH joined by a GlySer linker; also called 163E3-35GS-127D1; 163E3-127D1; not shown: C-terminal c-myc tag and His6 tag coded by pAX100) EVQLVESGGGLVQPGGSLRLSCVASGRIFSSNAMGWFRQAPGKEREFVAAITWRSGGSAYYADSAKGRFTISRDNAKNTVYLQMNSLKPEDTAVYYCAAGGSSWLSFPPDYWGQGTQVTVSSGGGGSGGGGSGGGGSGGGGSGGGGSGGGGSGGGGSEVQLVESGGGLVQAGESLRLSCAASGSTFDFKVMGWYRQPPGKQREGVAAIRLSGNMHYAESVKGRFTISKANAKNTVYLQMNSLRPEDTAVYYCKVNIRGQDYWGQGTQVTVSS 0.26

CXCR20030 (other, Biparatopic: two VHH joined by a GlySer linker; also called 163D2-35GS-54B12; 163D2-54B12; not shown: C-terminal c-myc tag and His6 tag coded by pAX100) EVQLVESGGGLVQAGGSLRLSCAASGRTFSDYAMGWFRQAPGKEREFVAAITWNGGRVFYTASVKGRFTISRDNAKNTMYLQMNSLKPEDTAVYYCAADKDRRTDYLGHPVAYWGQGTQVTVSSGGGGSGGGGSGGGGSGGGGSGGGGSGGGGSGGGGSEVQLVESGGGLVQAGGSLTLSCAVSGSTFRINTMGWYRRAPGKQRELVAARDRGGYINYVDSVKGRFTVSRDNAKPTMYLQMNSLKPEDTAVYYCHAGTQDRTGRNFDRWGQGTQVTVSS ? 0.56

CXCR20014 (bispecific antibody, Biparatopic: two VHH joined by a GlySer linker; also called 97A9-35GS-2B2; 97A9-2B2; not shown: C-terminal c-myc tag and His6 tag coded by pAX100) EVQLVESGGGLVQPGGSLRLSCVASGSIVRINTMGWYRQTPGKQRELVADITSGGNINYIDAVKGRFTISRDNTKNTVYLQMNSLKPEDTAVYYCNAEIVVLVGVWTQRARTGNYWGQGTQVTVSSGGGGSGGGGSGGGGSGGGGSGGGGSGGGGSGGGGSEVQLVESGGELVQPGGSLRLSCAASGSILTINAMGWYRQAPGKQRELVVRRTRGGSTTYQDSVKGRFTISADIAKKTMYLQMNSLKPEDTAVYYCMLDDRGGVYWGQGTQVTVSS ? 0.16

Data origin: patent US20130330346A1
